These data points were gathered from patent US5413990A.

SYSTEM_TESTED: LHRH (Rattus norvegicus)
Construct: evaluated in an in vitro test for LHRH antagonist potency (pA2); endogenous in cells; host or cells: pituitary cells (rat, from my own knowledge of the cited method)
Sequence (P30969 whole entry): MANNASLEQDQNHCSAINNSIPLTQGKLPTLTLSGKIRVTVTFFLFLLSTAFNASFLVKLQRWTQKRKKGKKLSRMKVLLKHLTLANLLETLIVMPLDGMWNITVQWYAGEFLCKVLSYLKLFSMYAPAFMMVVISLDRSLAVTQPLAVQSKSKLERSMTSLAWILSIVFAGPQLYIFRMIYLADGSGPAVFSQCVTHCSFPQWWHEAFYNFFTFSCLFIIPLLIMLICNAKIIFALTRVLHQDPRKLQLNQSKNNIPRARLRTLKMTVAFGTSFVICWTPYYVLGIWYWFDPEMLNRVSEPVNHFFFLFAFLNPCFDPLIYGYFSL
PROTOCOL_TEXT: in vitro test for LHRH antagonist potency (pA2)
Type: cell-based
PROTOCOL_CONDITIONS: negative logarithm of the antagonist concentration required to shift the response curve produced by the agonist leuprolide to two-fold higher concentration
Numbered stars: 1 amine (or outer) side, 2 acyl side, 3 side chain; on linkers, the order of the positions; unused ones are H or OH. Square brackets hold non-standard residues; d marks the D form. Peptide text beside a SMILES is read from it. * marks the point of attachment. dPhe(4-Cl) = N[C@H](Cc1ccc(Cl)cc1)C(=O)O; NH(2-morpholinoethyl) = C(CN1CCOCC1)N*; d2Nal = N[C@H](Cc1ccc2ccccc2c1)C(=O)O; Lys(iPr) = CC(C)NCCCC[C@H](N)C(=O)O; NMeY = CN[C@@H](Cc1ccc(O)cc1)C(=O)O; Cyclopropanecarbonyl = O=C(C1CC1)*; dCit = NC(=O)NCCC[C@@H](N)C(=O)O; d3Pal = N[C@H](Cc1cccnc1)C(=O)O; NH(3-picolyl) = c1cncc(CN*)c1; Nicotinoyl = O=C(c1cccnc1)*; CO = O=C([*:1])[*:2]; Propionyl = CCC(=O)*; Butyryl = CCCC(=O)*
// NB: equality with 40 pM counts as label 0; only Kb strictly below is label 1

Query :: Field: below-cutoff. Rule: recorded Kb strictly less than 40 pM. Subject: CC(C)C[C@H](NC(=O)[C@@H](CCCCNC(=O)c1cccnc1)NC(=O)[C@H](Cc1ccc(O)cc1)N(C)C(=O)[C@H](CO)NC(=O)[C@@H](Cc1cccnc1)NC(=O)[C@@H](Cc1ccc(Cl)cc1)NC(=O)[C@@H](Cc1ccc2ccccc2c1)NC(=O)C1CC1)C(=O)N[C@@H](CCCCNC(C)C)C(=O)N1CCC[C@H]1C(=O)N[C@H](C)C(N)=O [Example 2f] (Cyclopropanecarbonyl-[d2Nal][dPhe(4-Cl)][d3Pal]S[NMeY][dK](Nicotinoyl)L[Lys(iPr)]P[dA]-NH2)
Result :: label 1

Query :: Field: below-cutoff. Rule: recorded Kb strictly less than 40 pM. Subject: CCCC(=O)N[C@H](Cc1ccc2ccccc2c1)C(=O)N[C@H](Cc1ccc(Cl)cc1)C(=O)N[C@H](Cc1cccnc1)C(=O)N[C@@H](CO)C(=O)N(C)[C@@H](Cc1ccc(O)cc1)C(=O)N[C@H](CCCNC(N)=O)C(=O)N[C@@H](CC(C)C)C(=O)N[C@@H](CCCNC(=N)N)C(=O)N1CCC[C@H]1C(=O)N[C@H](C)C(N)=O [Example 5c] (Butyryl-[d2Nal][dPhe(4-Cl)][d3Pal]S[NMeY][dCit]LRP[dA]-NH2)
Result :: label 1

Query :: Field: below-cutoff. Rule: recorded Kb strictly less than 40 pM. Subject: CCC(=O)N[C@H](Cc1ccc2ccccc2c1)C(=O)N[C@H](Cc1ccc(Cl)cc1)C(=O)N[C@H](Cc1cccnc1)C(=O)N[C@@H](CO)C(=O)N(C)[C@@H](Cc1ccc(O)cc1)C(=O)N[C@H](CCCNC(N)=O)C(=O)N[C@@H](CC(C)C)C(=O)N[C@@H](CCCNC(=N)N)C(=O)N1CCC[C@H]1C(=O)N[C@H](C)C(N)=O [Example 5b] (Propionyl-[d2Nal][dPhe(4-Cl)][d3Pal]S[NMeY][dCit]LRP[dA]-NH2)
Result :: label 1

Query :: Field: below-cutoff. Rule: recorded Kb strictly less than 40 pM. Subject: CC(C)C[C@H](NC(=O)[C@@H](CCCNC(N)=O)NC(=O)[C@H](Cc1ccc(O)cc1)N(C)C(=O)[C@H](CO)NC(=O)[C@@H](Cc1cccnc1)NC(=O)[C@@H](Cc1ccc(Cl)cc1)NC(=O)[C@@H](Cc1ccc2ccccc2c1)NC(=O)NCc1cccnc1)C(=O)N[C@@H](CCCNC(=N)N)C(=O)N1CCC[C@H]1C(=O)N[C@H](C)C(N)=O [Example 8f] ({NH(3-picolyl)-CO}-[d2Nal][dPhe(4-Cl)][d3Pal]S[NMeY][dCit]LRP[dA]-NH2)
Result :: label 1

Query :: Field: below-cutoff. Rule: recorded Kb strictly less than 40 pM. Subject: CC(C)C[C@H](NC(=O)[C@@H](CCCNC(N)=O)NC(=O)[C@H](Cc1ccc(O)cc1)N(C)C(=O)[C@H](CO)NC(=O)[C@@H](Cc1cccnc1)NC(=O)[C@@H](Cc1ccc(Cl)cc1)NC(=O)[C@@H](Cc1ccc2ccccc2c1)NC(=O)NCCN1CCOCC1)C(=O)N[C@@H](CCCNC(=N)N)C(=O)N1CCC[C@H]1C(=O)N[C@H](C)C(N)=O [Example 8c] ({NH(2-morpholinoethyl)-CO}-[d2Nal][dPhe(4-Cl)][d3Pal]S[NMeY][dCit]LRP[dA]-NH2)
Result :: label 0
